Readings of IC50 for the listed compounds
METHOD SUMMARY: Inhibition of Plasminogen (unknown origin) binding to fibrin (unknown origin) interaction by surface plasmon resonance (SPR) analysis
Set-up: species or system Homo sapiens
Just the number in µM, nothing appended.

LINE NOTATION: NC[C@H]1CC[C@H](C(=O)O)CC1
UNITS TEXT: µM
IC50: 5.33

# context switch: different compound, same IC50
Look up IC50: Cl.O=P(O)(O)c1ccc2c(n1)CCNC2
1.48

====

METHOD SUMMARY: Volume of distribution at steady state in Sprague-Dawley rat at 1 mg/kg, iv measured upto 24 hrs by LC-MS/MS analysis
Assay type: ADME, organism-based
CONDITION CONTEXT: in vivo, read-out: Vdss
PROPERTY: Vd (L/kg)
Just the number in L/kg, nothing appended.

Look up Vd: NC[C@H]1CC[C@H](C(=O)O)CC1 [TRANEXAMIC ACID]
0.296
